Origin of values: patent US4696912A

# assay-notes: Stability in aqueous solution (HPLC assay)
# Assay type: physicochemical
# condition-details: aqueous solution, Table 2, aqueous solution 5 mg/mL, 25° C., 14 days; read-out: % CL-1565-A Remaining
measure: remaining at 336 h (%)
Use % as the unit, but write only the number.

Value lookup for remaining at 336 h; key = CC(O)(C=CC1CC=CC(=O)O1)C(CC(O)C=CC=CC=CCO)OP(=O)(O)O (stereo not shown)
63

---

# assay-notes: Stability in solid state form (HPLC assay)
# Assay type: physicochemical
# condition-details: Table 1, solid state, 37° C., 3 weeks, read-out: % CL-1565-A Remaining
measure: remaining at 504 h (%)
Quick note: give the figure in %, leave out the unit.

Data request, read-out remaining at 504 h, for CC(O)(C=CC1CC=CC(=O)O1)C(CC(O)C=CC=CC=CCO)OP(=O)(O)O (stereo not shown) [CL-1565-A]
26

---

# assay-notes: Stability in aqueous solution (HPLC assay)
# Type: physicochemical
# condition-details: aqueous solution, Table 2, aqueous solution 15 mg/mL, 5° C., 7 days; read-out: % CL-1565-A Remaining
measure: remaining at 168 h (%)
Number in %, nothing else.

Please give the measured remaining at 168 h for this molecule: CC(O)(C=CC1CC=CC(=O)O1)C(CC(O)C=CC=CC=CCO)OP(=O)(O)O (stereo not shown) [CL-1565-A]
81

---

# assay-notes: Stability in solid state form (HPLC assay)
# Type: physicochemical
# condition-details: Table 1, solid state, 25° C., 1 week, read-out: % CL-1565-A Remaining
measure: remaining at 168 h

Endpoint output: remaining at 168 h of CC(O)(C=CC1CC=CC(=O)O1)C(CC(O)C=CC=CC=CCO)OP(=O)(O)O (stereo not shown) . Value?
87%

---

# assay-notes: Stability in solid state form (HPLC assay)
# Type: physicochemical
# condition-details: Table 3, solid form, -15°, 9 months, read-out: % CL-1565-A Remaining
measure: remaining at 6480 h (%)
// units = %; emit number, no label

Query (compound): CC(O)(C=CC1CC=CC(=O)O1)C(CC(O)C=CC=CC=CCO)OP(=O)(O)O (stereo not shown) ; field requested: remaining at 6480 h
100

---

# assay-notes: Stability in aqueous solution (HPLC assay)
# Assay type: physicochemical
# condition-details: aqueous solution, Table 2, aqueous solution 5 mg/mL, 5° C., 7 days; read-out: % CL-1565-A Remaining
measure: remaining at 168 h (%)
Entry rule: numbers only, all in %.

# remaining at 168 h lookup, item CC(O)(C=CC1CC=CC(=O)O1)C(CC(O)C=CC=CC=CCO)OP(=O)(O)O (stereo not shown) [CL-1565-A]
92

---

# assay-notes: Stability in aqueous solution (HPLC assay)
# Format: physicochemical
# condition-details: aqueous solution, Table 4, aqueous solution 15 mg/mL, 25° C., 2 days; read-out: % CL-1565-A Remaining
measure: remaining at 48 h (%)
Numeric only. Scale: %

Item under review: CC(O)(C=CC1CC=CC(=O)O1)C(CC(O)C=CC=CC=CCO)OP(=O)(O)O (stereo not shown) [CL-1565-A] . Reported remaining at 48 h?
87
